# target.system: human ether-à-go-go-related gene (hERG) potassium channel (human, UniProt Q12809);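 also: peak tail current of the secondary pulse compared with the same well before compound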
# Sequence (Q12809 whole entry, looked up): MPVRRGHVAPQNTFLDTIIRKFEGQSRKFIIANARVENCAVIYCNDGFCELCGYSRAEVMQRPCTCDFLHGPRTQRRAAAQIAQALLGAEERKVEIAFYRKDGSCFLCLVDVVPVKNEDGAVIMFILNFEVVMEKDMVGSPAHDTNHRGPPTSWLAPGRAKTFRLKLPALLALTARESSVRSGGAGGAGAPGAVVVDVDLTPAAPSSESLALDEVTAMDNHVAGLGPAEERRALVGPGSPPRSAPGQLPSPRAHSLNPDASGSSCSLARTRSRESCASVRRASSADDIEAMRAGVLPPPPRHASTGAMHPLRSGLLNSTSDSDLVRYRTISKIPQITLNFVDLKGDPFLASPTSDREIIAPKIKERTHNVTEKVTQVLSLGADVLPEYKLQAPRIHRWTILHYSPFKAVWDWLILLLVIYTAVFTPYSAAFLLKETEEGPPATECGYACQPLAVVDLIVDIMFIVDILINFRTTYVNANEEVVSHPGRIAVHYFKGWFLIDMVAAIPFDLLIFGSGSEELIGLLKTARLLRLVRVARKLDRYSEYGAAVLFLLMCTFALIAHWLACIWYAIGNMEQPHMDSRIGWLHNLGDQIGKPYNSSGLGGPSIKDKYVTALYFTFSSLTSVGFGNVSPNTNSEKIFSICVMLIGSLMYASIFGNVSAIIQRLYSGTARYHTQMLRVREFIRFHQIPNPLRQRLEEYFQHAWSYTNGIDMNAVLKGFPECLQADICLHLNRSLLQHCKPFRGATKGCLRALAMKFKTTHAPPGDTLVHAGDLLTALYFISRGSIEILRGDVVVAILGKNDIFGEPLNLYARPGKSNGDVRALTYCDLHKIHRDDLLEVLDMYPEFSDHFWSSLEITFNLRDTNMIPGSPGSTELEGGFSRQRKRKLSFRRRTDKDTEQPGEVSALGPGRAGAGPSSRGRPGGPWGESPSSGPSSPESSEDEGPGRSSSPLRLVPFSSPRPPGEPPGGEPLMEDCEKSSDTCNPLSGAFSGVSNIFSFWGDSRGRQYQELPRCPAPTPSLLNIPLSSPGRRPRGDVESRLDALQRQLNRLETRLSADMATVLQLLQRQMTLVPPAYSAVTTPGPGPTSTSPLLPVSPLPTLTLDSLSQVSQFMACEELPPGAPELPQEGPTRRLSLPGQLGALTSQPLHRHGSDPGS
# measurement.description: primary screen, population patch clamp on CHO cells stably expressing hERG; higher = less effect of the substance
About 14,000 (4.5%) of roughly 310,000 compounds showed an effect of 50% or more. The effect is printed as a negative number. Shown is part of a subset that was picked to be rich in strong results.
Measured hERG current change (%, negative = inhibition) at 10uM, listed per entry for reference.
Express your answer in %, writing the number without its unit.

mol.smiles | assay.result
CCOC(=O)c1cnc2c(Cl)c(Cl)ccc2c1N1CCN(C)CC1.Cl | -55.5
Cn1c(=O)n(Cc2ccccc2Br)c2ccccc21 | -10.3
N=c1n(CCOc2ccccc2)c2ccccc2n1CCN1CCOCC1 | -42.9
O=C(CSc1ncn[nH]1)Nc1ccc(Cl)c(Cl)c1 | 0.453
Br.N=c1n(CCN2CCOCC2)c2ccccc2n1CC(=O)c1ccc(Cl)c(Cl)c1 | -73.2

Which hERG current change (%, negative = inhibition) at 10uM is listed for Cc1nn2cc(-c3ccc(Cl)cc3)cnc2c1Br ?
10.3

Would you mind doing Nc1c(C(=O)N2CCCC2)sc2nc(-c3ccccc3)ccc12 as well?
-70.7

Then what about the compound Cc1ccc(C(=O)Cn2c(=N)n(CCN3CCOCC3)c3ccccc32)cc1.[Br-] ?
-59.9

// same read-out, input: CCOC(=O)c1cnc2c(C)cc(Cl)cc2c1N1CCN(C)CC1.Cl
-19.6

And Cc1ccc(C(=O)NCCN2CCOCC2)cc1 ?
12

What do you have for Cc1ccc(C(=O)NCCN2CCOCC2)cc1Cl ?
-17.7

----------
# target.system: human ether-à-go-go-related gene (hERG) potassium channel (human);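 also: peak tail current of the secondary pulse compared with the same well before compound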
# measurement.description: primary screen, population patch clamp on CHO cells stably expressing hERG; higher = less effect of the substance
Hit rate of the full screen: of about 310,000 compounds, about 14,000 (4.5%) showed an effect of 50% or more. The effect is printed as a negative number. For the sample, strong results were picked, then their nearest neighbours and some compounds at random.
Below, each entry is listed alongside its reported hERG current change (%, negative = inhibition) at 10uM.
All answers are understood in %, so give the number only.

molecule | target.system | assay.result
N#Cc1ncc(-c2ccc3c(c2)OCCOCCOCCOCCO3)nc1C#N | human ether-à-go-go-related gene (hERG) potassium channel (human) | -69
Cc1ccc(CNC(=O)CCc2c(C)nc3c(c(C)nn3-c3ccc(C)cc3)c2C)cc1 | human ether-à-go-go-related gene (hERG) potassium channel (human) | 10.1

Param item = O=C(NCCCN1CCOCC1)c1ccc(S(=O)(=O)Nc2cccc(C(F)(F)F)c2)cc1 ; retrieve measured hERG current change (%, negative = inhibition) at 10uM.
-12.8

Try C/C(=N\Nc1nc(N2CCOCC2)nc(N2CCOCC2)n1)c1cccc([N+](=O)[O-])c1 next.
-4.76

Subsequent entry: Cl.O=C(Nc1ccc(C(=O)OC[C@@H]2CCCN3CCCC[C@H]23)cc1)c1cccc(Br)c1
-69.3

----------
hERG current change (%, negative = inhibition) at 10uM for assorted compounds
# target.system: human ether-à-go-go-related gene (hERG) potassium channel (human, UniProt Q12809);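 also: peak tail current of the secondary pulse compared with the same well before compound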
# measurement.description: primary screen, population patch clamp on CHO cells stably expressing hERG; higher = less effect of the substance
Hit rate of the full screen: of about 310,000 compounds, about 14,000 (4.5%) showed an effect of 50% or more. The effect is printed as a negative number. For the sample, strong results were picked, then their nearest neighbours and some compounds at random.
Numbers only; they are read as %.

// below: answered compounds
compound | units.symbol | assay.result
CC(=O)c1ccc(NC(=O)CSc2ccc3nnc(-c4ccccn4)n3n2)cc1 | % | -64.7
COc1ccc(CN(CCCN2CCOCC2)C(=O)Nc2ccccc2)cc1OC | % | -10.9
CCOC(=O)N1CCN(C(=O)CSc2nnc(COc3ccc(Cl)cc3)o2)CC1 | % | -37.8
CC(Oc1ccccc1)C(=O)N1CCC2(CC1)CC(=O)c1ccccc1O2 (centres unmarked) | % | -65.7
Cc1cc(=O)oc2cc(OCC(=O)N3CCN(C(C)c4ccccc4)CC3)c(Cl)cc12 (centres unmarked) | % | -35.1

Recorded hERG current change (%, negative = inhibition) at 10uM for NC(=O)c1ccsc1NC(=O)COC(=O)C1=NNC(=O)CC1 , please?
8.28

Next up: COc1ccc(NC(=O)CSc2ccc3nnc(-c4ccccn4)n3n2)cc1
-20.9

Follow-up entry: CCC1=Nc2cc(C(=O)NCCN3CCOCC3)ccc2Sc2ccccc21
-15.3

Next record, please: COCCNC(=O)c1cc2sccc2n1C
1.67

And then Cc1csc(NC(=O)Cc2ccccc2[N+](=O)[O-])n1 , what is it?
8.85

Could you do the same for O=C(Nc1ccc(Cl)c(Cl)c1)N(CCCN1CCOCC1)Cc1cccnc1 , please?
-55.5

How about this compound: Cc1ccc(OCC(=O)N2CCC3(CC2)CC(=O)c2ccccc2O3)cc1
-73.3
